The following compounds each carry a recorded Ki for ROCK1 (Homo sapiens, UniProt Q13464).

Which value of Ki has been reported for "COCCCNC(=O)c1cccc(CNc2ncc(-c3ccnc(N)n3)c3c2CCO3)c1F" in the records?
3 to 30 nM

Next record, please: "Nc1nccc(-c2cnc(NCc3cccc(C(=O)N[C@@H]4C[C@@H]4F)c3)c3c2OCC3)n1"
≤ 3 nM

Entry to check: Nc1nccc(-c2cnc(NCc3cccc(C(=O)NC4CC4F)c3)c3c2OCC3)n1 (single isomer, unassigned)
≤ 3 nM

Subsequent entry: CC1(C)CC(NC(=O)c2cccc(CNc3ncc(-c4ccnc(N)n4)c4c3CCO4)c2)CO1 (stereo not shown)
≤ 3 nM

Another compound to check: "COCCCNC(=O)c1cc(CNc2ncc(-c3ccnc(N)n3)c3c2CCO3)ccc1F"
3 to 30 nM

// next record "Nc1nccc(-c2cnc(NCc3cc(C(=O)NC4CCOCC4)ccc3F)c3c2OCC3)n1"
> 30 nM

What would you report for CC(C)(C)N1CC(CNC(=O)c2cccc(CNc3ncc(-c4ccnc(N)n4)c4c3CCO4)c2)CC1=O (single isomer, unassigned) [Example 33] ?
≤ 3 nM

---

Biological target: PKA (Homo sapiens, UniProt P17612)
Test: In vitro inhibitory activity assay for PKA (ADP-Glo), reported as selectivity ratio vs ROCK2
Format: biochemical
Settings: Ki value for PKA divided by Ki value of ROCK2
readout: Ratio (PKA/ROCK2)

Known results for compounds:
compound: Nc1nccc(-c2cnc(NCc3cccc(C(=O)NC4CC4F)c3)c3c2OCC3)n1 (single isomer, unassigned) [Example 45]
Ratio (PKA/ROCK2): *** (ratio≥10)
--
compound: CC(C)(O)CNC(=O)c1cccc(CNc2ncc(-c3ccnc(N)n3)c3c2CCO3)c1
Ratio (PKA/ROCK2): *** (ratio≥10)
--
compound: CNC(=O)c1cccc(CNc2ncc(-c3ccnc(N)n3)c3c2CCO3)n1
Ratio (PKA/ROCK2): *** (ratio≥10)
--
compound: COCCCNC(=O)c1cccc(CNc2ncc(-c3ccnc(N)n3)c3c2CCO3)c1
Ratio (PKA/ROCK2): *** (ratio≥10)
--
compound: CC(C)(C)N1CC(CNC(=O)c2cccc(CNc3ncc(-c4ccnc(N)n4)c4c3CCO4)c2)CC1=O (single isomer, unassigned) [Example 32]
Ratio (PKA/ROCK2): *** (ratio≥10)

Attention now shifts to the item below.
Using the record for "Nc1nccc(-c2cnc(NCc3cccc(C(=O)N[C@H]4C[C@H](F)C4)c3)c3c2OCC3)n1" , report its Ratio (PKA/ROCK2).
*** (ratio≥10)

---

Listed here: molecules with reported Ki for ROCK1 (Homo sapiens).

Quick one: Ki of COCCCNC(=O)c1cc(F)cc(CNc2ncc(-c3ccnc(N)n3)c3c2CCO3)c1 [Example 60] ?
≤ 3 nM

Proceed to CC(C)(O)CNC(=O)c1cccc(CNc2ncc(-c3ccnc(N)n3)c3c2CCO3)c1 [Example 17]
≤ 3 nM

And then COCC1(CNC(=O)c2cccc(CNc3ncc(-c4ccnc(N)n4)c4c3CCO4)c2)CC1 [Example 28] , what is it?
3 to 30 nM

And what about the molecule Nc1nccc(-c2cnc(NCc3cccc(C(=O)NC4CCOCC4)c3)c3c2OCC3)n1 [Example 7] ?
≤ 3 nM

Entry CCCNC(=O)c1cccc(CNc2ncc(-c3ccnc(N)n3)c3c2CCO3)c1 [Example 40] please
≤ 3 nM

Now this one: CNC(=O)c1cccc(CNc2ncc(-c3ccnc(N)n3)c3c2CCO3)c1F [Example 54]
> 30 nM

# iterate: CO[C@H]1C[C@@H](NC(=O)c2cccc(CNc3ncc(-c4ccnc(N)n4)c4c3CCO4)c2)C1 [Example 18]
≤ 3 nM

Also need Nc1nccc(-c2cnc(NCc3cccc(C(=O)NCC(F)(F)F)c3)c3c2OCC3)n1 [Example 12] , thanks.
3 to 30 nM
